Parameter: pKb. Scope: all listed entries.
- TESTED SYSTEM: Alpha-1B adrenergic receptor (Rattus norvegicus) (UniProt P15823)
- Sequence (whole entry): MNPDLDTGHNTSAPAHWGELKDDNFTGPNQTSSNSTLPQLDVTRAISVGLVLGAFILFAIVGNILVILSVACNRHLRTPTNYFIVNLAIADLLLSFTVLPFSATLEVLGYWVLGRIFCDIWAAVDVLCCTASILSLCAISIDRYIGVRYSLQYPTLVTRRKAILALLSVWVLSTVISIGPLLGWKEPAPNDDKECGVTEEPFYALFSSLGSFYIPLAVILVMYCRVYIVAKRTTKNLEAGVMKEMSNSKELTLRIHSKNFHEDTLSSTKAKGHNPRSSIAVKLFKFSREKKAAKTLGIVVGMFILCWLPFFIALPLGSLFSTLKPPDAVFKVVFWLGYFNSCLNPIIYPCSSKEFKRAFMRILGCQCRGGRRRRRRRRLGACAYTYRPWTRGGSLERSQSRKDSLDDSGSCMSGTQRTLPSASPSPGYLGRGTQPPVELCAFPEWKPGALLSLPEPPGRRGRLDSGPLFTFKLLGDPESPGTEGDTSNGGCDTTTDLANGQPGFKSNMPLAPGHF
- MEASUREMENT NOTES: Antagonist potency against the alpha-1B adrenergic receptor determined in isolated rat spleen
- Assay type: functional, tissue-based
PROPERTY LABEL: pKb

INSERT INTO assay_data (molecule, tested_system, readout_value) VALUES
  ('COc1ccccc1N1CCN(CC2Nc3ccccc3S(=O)(=O)N2)CC1 (configuration not stated)', 'Alpha-1B adrenergic receptor (Rattus norvegicus) (UniProt P15823)', 5.97),
  ('COc1ccccc1N1CCN(CC2=NS(=O)(=O)c3ccccc3N2)CC1', 'Alpha-1B adrenergic receptor (Rattus norvegicus) (UniProt P15823)', 5.46),
  ('COc1ccccc1N1CCN(CC2Nc3cc(C)ccc3S(=O)(=O)N2)CC1 (configuration not stated)', 'Alpha-1B adrenergic receptor (Rattus norvegicus) (UniProt P15823)', 6.24),
  ('COc1ccccc1N1CCN(CC2=NS(=O)(=O)c3ccc(C)cc3N2)CC1', 'Alpha-1B adrenergic receptor (Rattus norvegicus) (UniProt P15823)', 6.05),
  ('COc1ccccc1N1CCN(CC2Nc3cc(Cl)ccc3S(=O)(=O)N2)CC1 (configuration not stated)', 'Alpha-1B adrenergic receptor (Rattus norvegicus) (UniProt P15823)', 5.09),
  ('COc1ccccc1N1CCN(CC2=NS(=O)(=O)c3ccc(Cl)cc3N2)CC1', 'Alpha-1B adrenergic receptor (Rattus norvegicus) (UniProt P15823)', 6.17),
  ('COc1ccccc1N1CCN(CCN2C(=O)CC3(CCCC3)CC2=O)CC1', 'Alpha-1B adrenergic receptor (Rattus norvegicus) (UniProt P15823)', 7.48);

---

- MEASUREMENT NOTES: Selectivity towards 5-hydroxytryptamine 1A and alpha 1D adrenergic receptors was determined
PROPERTY LABEL: Selectivity

INSERT INTO assay_data (compound, readout_value) VALUES
  ('COc1ccccc1N1CCN(CC2Nc3cc(Cl)ccc3S(=O)(=O)N2)CC1 (stereo not given)', 1100),
  ('COc1ccccc1N1CCN(CC2=NS(=O)(=O)c3ccccc3N2)CC1', '< 0.03'),
  ('COc1ccccc1N1CCN(CC2=NS(=O)(=O)c3ccc(Cl)cc3N2)CC1', 0.38),
  ('COc1ccccc1N1CCN(CC2Nc3cc(C)ccc3S(=O)(=O)N2)CC1 (stereo not given)', '< 10'),
  ('COc1ccccc1N1CCN(CC2Nc3ccccc3S(=O)(=O)N2)CC1 (stereo not given)', 275);

---

- TESTED SYSTEM: 5-hydroxytryptamine receptor 1A (Homo sapiens)
- Sequence (P08908 whole entry): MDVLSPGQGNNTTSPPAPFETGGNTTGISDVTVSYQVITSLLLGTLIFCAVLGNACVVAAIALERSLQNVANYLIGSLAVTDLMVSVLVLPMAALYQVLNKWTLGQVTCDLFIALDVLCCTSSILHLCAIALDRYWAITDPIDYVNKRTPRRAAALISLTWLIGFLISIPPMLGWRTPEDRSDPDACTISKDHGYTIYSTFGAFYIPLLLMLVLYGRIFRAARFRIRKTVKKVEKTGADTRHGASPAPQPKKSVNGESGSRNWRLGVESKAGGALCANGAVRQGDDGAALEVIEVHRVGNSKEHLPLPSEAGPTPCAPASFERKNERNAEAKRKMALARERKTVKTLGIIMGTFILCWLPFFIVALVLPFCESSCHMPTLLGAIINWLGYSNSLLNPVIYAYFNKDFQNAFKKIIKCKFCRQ
- MEASUREMENT NOTES: Inhibitory constant value against 5-hydroxytryptamine 1A receptor
pKi: −log10 of the molar value.
PROPERTY LABEL: pKi

INSERT INTO measurements (substance_smiles, readout_value) VALUES
  ('COc1ccccc1N1CCN(CC2=NS(=O)(=O)c3ccccc3N2)CC1', '< 6.00');

---

- TESTED SYSTEM: UniProt:P08908
- MEASUREMENT NOTES: Inhibitory constant value against the 5-hydroxytryptamine 1A receptor
pKi: −log10 of the molar value.
PROPERTY LABEL: pKi

INSERT INTO measurements (compound, readout_value) VALUES
  ('COc1ccccc1N1CCN(CC2Nc3cc(Cl)ccc3S(=O)(=O)N2)CC1 (stereo not given)', 8.04),
  ('COc1ccccc1N1CCN(CC2Nc3ccccc3S(=O)(=O)N2)CC1 (stereo not given)', 7.78),
  ('COc1ccccc1N1CCN(CCN2C(=O)CC3(CCCC3)CC2=O)CC1 [BMY-7378]', 8.90),
  ('COc1ccccc1N1CCN(CC2=NS(=O)(=O)c3ccc(C)cc3N2)CC1', 6.97),
  ('COc1ccccc1N1CCN(CC2=NS(=O)(=O)c3ccc(Cl)cc3N2)CC1', 7.33);

---

- TESTED SYSTEM: Alpha adrenergic receptor 1A and 1D (Rattus norvegicus) (UniProt P23944+P43140)
- Sequence (P43140 whole entry, looked up, one chain of several): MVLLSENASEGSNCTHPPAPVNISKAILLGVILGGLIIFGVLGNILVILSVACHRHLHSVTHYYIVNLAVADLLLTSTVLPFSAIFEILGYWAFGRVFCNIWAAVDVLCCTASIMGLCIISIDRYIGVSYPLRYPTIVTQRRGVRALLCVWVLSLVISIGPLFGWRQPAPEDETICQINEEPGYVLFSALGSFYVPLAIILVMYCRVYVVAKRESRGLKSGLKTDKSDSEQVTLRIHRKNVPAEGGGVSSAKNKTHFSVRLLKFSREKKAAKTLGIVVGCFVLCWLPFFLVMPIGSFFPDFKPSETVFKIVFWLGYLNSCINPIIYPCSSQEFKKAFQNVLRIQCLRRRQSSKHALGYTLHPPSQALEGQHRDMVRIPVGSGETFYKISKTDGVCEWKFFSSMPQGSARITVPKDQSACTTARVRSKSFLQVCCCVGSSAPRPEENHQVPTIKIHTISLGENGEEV
- MEASUREMENT NOTES: Selectivity towards alpha 1D and alpha 1A adrenergic receptors
- Assay type: protein assay
PROPERTY LABEL: Selectivity

INSERT INTO results (molecule, property_label, readout_value) VALUES
  ('COc1ccccc1N1CCN(CC2Nc3cc(C)ccc3S(=O)(=O)N2)CC1 (stereo unspecified)', 'Selectivity', 0.95),
  ('COc1ccccc1N1CCN(CC2Nc3ccccc3S(=O)(=O)N2)CC1 (stereo unspecified)', 'Selectivity', 0.35),
  ('COc1ccccc1N1CCN(CC2=NS(=O)(=O)c3ccc(Cl)cc3N2)CC1', 'Selectivity', 295),
  ('COc1ccccc1N1CCN(CC2=NS(=O)(=O)c3ccc(C)cc3N2)CC1', 'Selectivity', '> 3'),
  ('COc1ccccc1N1CCN(CC2Nc3cc(Cl)ccc3S(=O)(=O)N2)CC1 (stereo unspecified)', 'Selectivity', 1),
  ('COc1ccccc1N1CCN(CC2=NS(=O)(=O)c3ccccc3N2)CC1', 'Selectivity', '> 389');

---

- TESTED SYSTEM: Alpha-1A adrenergic receptor (Rattus norvegicus) (UniProt P43140)
- Sequence (P43140 whole entry): as the sequence (P43140 whole entry, looked up, one chain of several) above
- MEASUREMENT NOTES: Antagonist potency against the alpha-1A adrenergic receptor was determined in isolated rat prostatic vas deferens
- Format: functional, tissue-based
Parameter: pKb. Scope: all listed entries.
PROPERTY LABEL: pKb

INSERT INTO measurements (molecule, value_relation_sign, readout_value) VALUES
  ('COc1ccccc1N1CCN(CC2Nc3cc(C)ccc3S(=O)(=O)N2)CC1 (stereo unspecified)', '=', 6),
  ('COc1ccccc1N1CCN(CC2=NS(=O)(=O)c3ccc(C)cc3N2)CC1', '<', 5),
  ('COc1ccccc1N1CCN(CC2=NS(=O)(=O)c3ccccc3N2)CC1', '<', 5),
  ('COc1ccccc1N1CCN(CC2Nc3cc(Cl)ccc3S(=O)(=O)N2)CC1 (stereo unspecified)', '=', 5.05),
  ('COc1ccccc1N1CCN(CC2Nc3ccccc3S(=O)(=O)N2)CC1 (stereo unspecified)', '=', 5.81),
  ('COc1ccccc1N1CCN(CC2=NS(=O)(=O)c3ccc(Cl)cc3N2)CC1', '=', 5.28);

---

- TESTED SYSTEM: Alpha-1D adrenergic receptor (Rattus norvegicus)
- Sequence (whole entry): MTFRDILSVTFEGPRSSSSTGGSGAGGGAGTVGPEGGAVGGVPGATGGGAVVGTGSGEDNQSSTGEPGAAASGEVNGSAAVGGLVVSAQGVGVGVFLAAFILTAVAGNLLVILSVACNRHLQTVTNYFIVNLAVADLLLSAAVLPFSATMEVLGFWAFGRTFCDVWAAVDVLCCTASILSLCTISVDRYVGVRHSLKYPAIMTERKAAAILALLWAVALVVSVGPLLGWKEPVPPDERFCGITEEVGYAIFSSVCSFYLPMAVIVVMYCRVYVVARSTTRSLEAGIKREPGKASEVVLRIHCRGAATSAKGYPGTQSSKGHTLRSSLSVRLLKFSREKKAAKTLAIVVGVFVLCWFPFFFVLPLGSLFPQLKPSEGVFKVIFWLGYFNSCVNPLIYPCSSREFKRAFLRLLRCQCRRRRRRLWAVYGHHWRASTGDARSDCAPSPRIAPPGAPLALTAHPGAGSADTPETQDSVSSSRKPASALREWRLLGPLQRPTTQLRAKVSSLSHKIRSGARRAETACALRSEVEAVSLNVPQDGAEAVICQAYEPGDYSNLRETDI
- MEASUREMENT NOTES: Antagonist potency against the alpha-1D adrenergic receptor was determined in isolated rat thoracic aorta
- Assay type: functional, tissue-based
Parameter: pKb. Scope: all listed entries.
PROPERTY LABEL: pKb

INSERT INTO measurements (compound, readout_value) VALUES
  ('COc1ccccc1N1CCN(CC2=NS(=O)(=O)c3ccc(C)cc3N2)CC1', 5.5),
  ('COc1ccccc1N1CCN(CC2=NS(=O)(=O)c3ccccc3N2)CC1', 7.59),
  ('COc1ccccc1N1CCN(CC2Nc3ccccc3S(=O)(=O)N2)CC1 (stereo unspecified)', 5.34),
  ('COc1ccccc1N1CCN(CC2=NS(=O)(=O)c3ccc(Cl)cc3N2)CC1', 7.75),
  ('COc1ccccc1N1CCN(CC2Nc3cc(Cl)ccc3S(=O)(=O)N2)CC1 (stereo unspecified)', 5),
  ('COc1ccccc1N1CCN(CC2Nc3cc(C)ccc3S(=O)(=O)N2)CC1 (stereo unspecified)', 5.98);
